- ASSAYED SYSTEM: GST-FAK (N-terminal GST fusion with truncated human FAK (376-1052 (end) amino acids)) (Homo sapiens)
- Construct: truncated human FAK (376-1052 (end) amino acids)
- EXPERIMENT DESCRIPTION: Biochemical enzyme assay for FAK activity (Caliper LC3000 mobility shift)
- COND: Table 5; 100 uM ATP; read-out: FAK IC50
pIC50: −log10 of the molar value.
READOUT KIND: pIC50

FC(F)(F)c1cncc(-c2nccc(NCCc3ccccc3Cl)n2)c1 5.00 to 6.00

Input: Output measured pIC50 for this item: Cn1cc(-c2cc(NCc3ccc(F)cc3F)nc(-c3cnn(C)c3)n2)cn1
Output: 5.00 to 6.00

Input: Output measured pIC50 for this item: COc1cncc(-c2nccc(NCc3ncccc3F)n2)c1
Output: 6.00 to 7.00

Input: Output measured pIC50 for this item: CNC(=O)c1ccccc1CNc1ccnc(-c2cncc(C(F)(F)F)c2)n1
Output: 5.00 to 6.00

Input: Output measured pIC50 for this item: Fc1ccc(-c2nccc(NCc3ccccc3F)n2)cn1
Output: < 5.00

Input: Output measured pIC50 for this item: Fc1cc(Cl)ccc1CNc1nccc(-c2cncc(C(F)(F)F)c2)n1
Output: 6.00 to 7.00

Input: Output measured pIC50 for this item: CS(=O)(=O)Nc1cccc(-c2nc(NCc3ccc(F)cc3F)c3nc[nH]c3n2)c1
Output: < 5.00

Input: Output measured pIC50 for this item: FC(F)(F)c1cncc(-c2nccc(NCc3ccccn3)n2)c1
Output: 6.00 to 7.00

Input: Output measured pIC50 for this item: Fc1ccc(CNc2nccc(-c3cncc(C(F)(F)F)c3)n2)c(F)c1
Output: > 7.00

Input: Output measured pIC50 for this item: N#Cc1cncc(-c2nccc(NCc3ccccn3)n2)c1
Output: 5.00 to 6.00

* * *

- ASSAYED SYSTEM: GST-FAK (N-terminal GST fusion with truncated human FAK (376-1052 (end) amino acids)) (Homo sapiens, UniProt Q05397)
- Construct: truncated human FAK (376-1052 (end) amino acids)
- Sequence (Q05397 376-1052): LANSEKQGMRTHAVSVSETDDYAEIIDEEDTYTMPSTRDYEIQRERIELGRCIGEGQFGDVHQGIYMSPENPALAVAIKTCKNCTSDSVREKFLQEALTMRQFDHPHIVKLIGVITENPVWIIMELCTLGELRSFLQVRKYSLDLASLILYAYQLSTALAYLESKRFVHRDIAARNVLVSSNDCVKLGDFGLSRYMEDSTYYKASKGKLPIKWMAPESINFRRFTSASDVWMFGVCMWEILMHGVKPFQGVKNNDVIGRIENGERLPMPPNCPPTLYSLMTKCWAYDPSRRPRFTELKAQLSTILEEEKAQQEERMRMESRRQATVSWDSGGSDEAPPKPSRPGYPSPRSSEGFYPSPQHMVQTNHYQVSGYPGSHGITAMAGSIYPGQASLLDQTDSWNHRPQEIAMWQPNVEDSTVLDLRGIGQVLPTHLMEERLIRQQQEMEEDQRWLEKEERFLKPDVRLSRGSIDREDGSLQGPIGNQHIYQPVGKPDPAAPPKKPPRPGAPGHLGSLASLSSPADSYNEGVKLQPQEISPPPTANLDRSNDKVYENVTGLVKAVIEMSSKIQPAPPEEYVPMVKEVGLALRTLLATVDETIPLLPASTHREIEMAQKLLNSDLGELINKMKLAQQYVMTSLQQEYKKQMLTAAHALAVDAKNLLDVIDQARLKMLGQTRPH
- EXPERIMENT DESCRIPTION: Biochemical enzyme assay for FAK activity (Caliper LC3000 mobility shift)
- COND: Table 3; 100 uM ATP; read-out: FAK IC50
pIC50: −log10 of the molar value.
READOUT KIND: pIC50

Completed entries (count: 3):
COMPOUND	pIC50
CNCC(Nc1ccnc(-c2cccnc2N)n1)c1ccccc1 (centres unmarked) [Compound 144]	< 5.00
Nc1ncccc1-c1nccc(NCc2ccccc2Cl)n1 [Compound 86]	6.00 to 7.00
Nc1ncccc1-c1nccc(NCc2ccccc2OC(F)(F)F)n1 [Compound 84]	5.00 to 6.00

Input: Output measured pIC50 for this item: CNC[C@@H](Nc1ccnc(-c2cccnc2N)n1)c1ccccc1 [Compound 146]
Output: < 5.00

Input: Output measured pIC50 for this item: Nc1ncccc1-c1nccc(NCc2ccccc2F)n1 [Compound 78]
Output: 6.00 to 7.00

Input: Output measured pIC50 for this item: Nc1ncccc1-c1nccc(NCc2ccc(F)cc2C(F)(F)F)n1 [Compound 110]
Output: > 7.00

* * *

- ASSAYED SYSTEM: GST-FAK (N-terminal GST fusion with truncated human FAK (376-1052 (end) amino acids)) (Homo sapiens)
- Construct: truncated human FAK (376-1052 (end) amino acids)
- EXPERIMENT DESCRIPTION: Biochemical enzyme assay for FAK activity (Caliper LC3000 mobility shift)
- COND: Table 5; 100 uM ATP; read-out: FAK IC50
- Procedure: 1. Biochemical Enzyme Assays for FAK Activity The FAK assays described here are performed on two Caliper Life Sciences systems, the LC3000 and the EZ Reader II. […] The plate is read on a Caliper LC 3000 in an Off-Chip mobility shift assay format, using the following parameters for a 12-sipper chip: screening pressure—1.9 psi, upstream voltage—3000, downstream voltage—700. […]
READOUT KIND: IC50

COMPOUND	READOUT KIND	RESULT
OC[C@H](Nc1ccnc(-c2cncc(C(F)(F)F)c2)n1)c1ccccc1	IC50	100 to 1000 nM
Fc1ccc(CCNc2ccnc(-c3cncc(C(F)(F)F)c3)n2)cc1	IC50	100 to 1000 nM
CNC(=O)C(Nc1ccnc(-c2cncc(C(F)(F)F)c2)n1)c1ccccc1 (centres unmarked)	IC50	1000 to 10000 nM
Fc1ccccc1CNc1ccnc(-c2cccnc2F)n1	IC50	1000 to 10000 nM

Now examine the next entry.
Input: Output measured IC50 for this item: COc1ccccc1CCNc1ccnc(-c2cncc(C(F)(F)F)c2)n1
Output: 1000 to 10000 nM

* * *

Listed next: entries and their corresponding pIC50.
- ASSAYED SYSTEM: GST-FAK (N-terminal GST fusion with truncated human FAK (376-1052 (end) amino acids)) (Homo sapiens)
- Construct: truncated human FAK (376-1052 (end) amino acids)
- EXPERIMENT DESCRIPTION: Biochemical enzyme assay for FAK activity (Caliper LC3000 mobility shift)
- COND: Table 3; 100 uM ATP; read-out: FAK IC50
pIC50: −log10 of the molar value.

Completed entries (count: 2):
COMPOUND	pIC50
FC(F)(F)c1cncc(-c2nccc(NCc3ccccc3C(F)(F)F)n2)c1	> 7.00
Nc1ncc(Cl)cc1-c1nccc(NCc2ccccc2C(F)(F)F)n1	> 7.00

Input: Output measured pIC50 for this item: Nc1ncccc1-c1cc(NCc2ccccc2F)ccn1
Output: < 5.00

Input: Output measured pIC50 for this item: Nc1ncccc1-c1nccc(NCc2ccc(F)cc2)n1
Output: 5.00 to 6.00

Input: Output measured pIC50 for this item: CC(Nc1ccnc(-c2cncc(C(F)(F)F)c2)n1)c1ccccc1C(F)(F)F (centres unmarked)
Output: > 7.00

* * *

- ASSAYED SYSTEM: GST-FAK (N-terminal GST fusion with truncated human FAK (376-1052 (end) amino acids)) (Homo sapiens, UniProt Q05397)
- Construct: truncated human FAK (376-1052 (end) amino acids)
- EXPERIMENT DESCRIPTION: Biochemical enzyme assay for FAK activity (Caliper LC3000 mobility shift)
- COND: Table 3; 100 uM ATP; read-out: FAK IC50
pIC50: −log10 of the molar value.
READOUT KIND: pIC50

Completed entries (count: 4):
MOLECULE	RESULT
Nc1ncccc1-c1nccc(NCc2ccc(Cl)cc2C(F)(F)F)n1 [Compound 109]	6.00 to 7.00
CC(Nc1ccnc(-c2cccnc2N)n1)c1ccccc1C(F)(F)F (centres unmarked) [Compound 115]	6.00 to 7.00
Nc1ncc(C(F)(F)F)cc1-c1nccc(NCc2ccccc2C(F)(F)F)n1 [Compound 136]	> 7.00
Nc1ncccc1-c1nccc(NCc2cc(F)ccc2C(F)(F)F)n1 [Compound 102]	5.00 to 6.00

Now examine the next entry.
Input: Output measured pIC50 for this item: FC(F)(F)c1cc(Cl)ccc1CNc1ccnc(-c2cncc(Cl)c2)n1 [Compound 118]
Output: > 7.00

* * *

- ASSAYED SYSTEM: GST-FAK (N-terminal GST fusion with truncated human FAK (376-1052 (end) amino acids)) (Homo sapiens)
- Construct: truncated human FAK (376-1052 (end) amino acids)
- EXPERIMENT DESCRIPTION: Biochemical enzyme assay for FAK activity (Caliper LC3000 mobility shift)
- COND: Table 2; 100 uM ATP; read-out: FAK IC50
READOUT KIND: IC50

Completed entries (count: 5):
COMPOUND	READOUT KIND	RESULT
NC(=O)C1CCCN(C(=O)c2cc(NCc3ccc(F)cc3F)nc(-c3cncc(C(F)(F)F)c3)n2)C1 (stereo not shown)	IC50	< 100 nM
CN(C)CCCCNc1cc(NCc2ccc(F)cc2F)nc(-c2cncc(C(F)(F)F)c2)n1	IC50	100 to 1000 nM
NC(=O)CCNc1cc(NCc2ccc(F)cc2F)nc(-c2cncc(C(F)(F)F)c2)n1	IC50	100 to 1000 nM
O=C(NCCN1CCNC1=O)c1cc(NCc2ccc(F)cc2F)nc(-c2cncc(C(F)(F)F)c2)n1	IC50	100 to 1000 nM
CN(C)CCCCNC(=O)c1cc(NCc2ccc(F)cc2F)nc(-c2cncc(C(F)(F)F)c2)n1	IC50	< 100 nM

Input: Output measured IC50 for this item: O=C(CCNc1cc(NCc2ccc(F)cc2F)nc(-c2cncc(C(F)(F)F)c2)n1)N1CCOCC1
Output: 100 to 1000 nM

Input: Output measured IC50 for this item: NC(=O)C1CCN(C(=O)c2cc(NCc3ccc(F)cc3F)nc(-c3cncc(C(F)(F)F)c3)n2)CC1
Output: < 100 nM

Input: Output measured IC50 for this item: CN1CCC(CNC(=O)c2cc(NCc3ccc(F)cc3F)nc(-c3cncc(C(F)(F)F)c3)n2)C1 (stereo not shown)
Output: < 100 nM

Input: Output measured IC50 for this item: O=C(NCCn1cccn1)c1cc(NCc2ccc(F)cc2F)nc(-c2cncc(C(F)(F)F)c2)n1
Output: < 100 nM

Input: Output measured IC50 for this item: NC(=O)CNC(=O)c1cc(NCc2ccc(F)cc2F)nc(-c2cncc(C(F)(F)F)c2)n1
Output: < 100 nM

Input: Output measured IC50 for this item: O=C(NCCCn1ccnc1)c1cc(NCc2ccc(F)cc2F)nc(-c2cncc(C(F)(F)F)c2)n1
Output: < 100 nM

Input: Output measured IC50 for this item: O=C(NCCC(=O)N1CCOCC1)c1cc(NCc2ccc(F)cc2F)nc(-c2cncc(C(F)(F)F)c2)n1
Output: < 100 nM

Input: Output measured IC50 for this item: CCN(CC)C(=O)CCNc1cc(NCc2ccc(F)cc2F)nc(-c2cncc(C(F)(F)F)c2)n1
Output: 100 to 1000 nM

Input: Output measured IC50 for this item: O=C(NCCCN1CCOCC1)c1cc(NCc2ccc(F)cc2F)nc(-c2cncc(C(F)(F)F)c2)n1
Output: < 100 nM

Input: Output measured IC50 for this item: NC(=O)CCNC(=O)c1cc(NCc2ccc(F)cc2F)nc(-c2cncc(C(F)(F)F)c2)n1
Output: < 100 nM

Input: Output measured IC50 for this item: CN(C)CCCNC(=O)c1cc(NCc2ccc(F)cc2F)nc(-c2cncc(C(F)(F)F)c2)n1
Output: < 100 nM

Input: Output measured IC50 for this item: NC(=O)C1CCCN(c2cc(NCc3ccc(F)cc3F)nc(-c3cncc(C(F)(F)F)c3)n2)C1 (stereo not shown)
Output: 100 to 1000 nM
